Tested on: benzodiazepine receptors
EXPERIMENT_NOTES: Sleep time in human male volunteers; in vivo KD from reciprocals plot
PARTICULARS: in vivo in humans, response sleep time, free drug crossing the blood brain barrier, slope of reciprocals plot
PROPERTY_LABEL: Kd (µM)
Entry rule: numbers only, all in µM.

INPUT: // returns reported Kd for input Cc1nnc2n1-c1ccc(Cl)cc1C(c1ccccc1)=NC2
OUTPUT: 0.0508

Data credit: patent US20250241586A1
